Where do the numbers come from? From patent US20220296726A1.

- subject.of.test: T1, Human TREM2 extracellular domain (ECD), residues 19-131, C-terminally biotinylated, deglycosylated (human, UniProt Q9NZC2 19-131, C-terminally biotinylated; deglycosylated)
- T1 construct: range 19-131; loaded on Superstreptavidin biosensors; also called triggering receptor expressed on myeloid cells 2; Human BLI (deglycosylated)
- T1 sequence (looked up): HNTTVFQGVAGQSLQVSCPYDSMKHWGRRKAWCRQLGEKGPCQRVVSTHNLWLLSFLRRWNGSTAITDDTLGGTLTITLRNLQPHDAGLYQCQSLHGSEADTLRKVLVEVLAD
- assay.method.text: BLI steady state, deglycosylated human TREM2 ECD on sensor
*1 amine or outer side, *2 acyl side, *3 side chain or, on linkers, in order; H or OH if unused. Bridges are numbered along the chain shown (N, C = ends). Where no end group is shown, it is not given here. [ ]: non-standard residue; d: D form. The star is where a group is joined. TATA = O=C(CC[*:1])N1CN(C(=O)CC[*:2])CN(C(=O)CC[*:3])C1; Phe(3-Me) = Cc1cccc(C[C@H](N)C(=O)O)c1; 1Nal = N[C@@H](Cc1cccc2ccccc12)C(=O)O; NMeA = CN[C@@H](C)C(=O)O; Pent4ynoyl = C#CCCC(=O)*
# strict inequality: Kd < 2000 nM yields t, everything else yields f

Example entries and their recorded answers appear below.
CSEYCFXPFYHC (N-terminal acetyl (Ac); CiSEYCiiF[6MeTrp]PFYHCiii; Ci, Cii, Ciii on TATA scaffold) [BCY20060] : t
Ac-CSEYCFWPF[dA]HC (linker 1-5-12 via TATA) [BCY20093] : f
CSEYCFWPXYHC (N-terminal acetyl (Ac); CiSEYCiiFWP[HPhe]YHCiii; Ci, Cii, Ciii on TATA scaffold) [BCY19667] : t
CSEYCFWPFXHC (N-terminal acetyl (Ac); CiSEYCiiFWPF[3tBuTyr]HCiii; Ci, Cii, Ciii on TATA scaffold) [BCY20080] : t
ACSEYCFWPFWQCA (linker 2-6-13 via TATA) [BCY19778] : f
Ac-CDEYCFWPFYHC (linker 1-5-12 via TATA) [BCY20563] : f
Ac-CSEYCFW[NMeA]FYAC (linker 1-5-12 via TATA) [BCY19303] : f
CSEYCFWPXYHC (N-terminal acetyl (Ac); CiSEYCiiFWP[4Pal]YHCiii; Ci, Cii, Ciii on TATA scaffold) [BCY20569] : f
CSEYCFWPXYHC (N-terminal acetyl (Ac); CiSEYCiiFWP[44BPA]YHCiii; Ci, Cii, Ciii on TATA scaffold) [BCY20075] : f
Ac-CSEYCFWPFDHC (linker 1-5-12 via TATA) [BCY20570] : t

*Q* Does the reported Kd of Ac-CSEYCFWPFFLC (linker 1-5-12 via TATA) [BCY20222] stay below 2000 nM?
*A* t

*Q* Below 2000 nM on Kd? Entry CSEYCFWPXYHC (N-terminal acetyl (Ac); CiSEYCiiFWP[3MePhe]YHCiii; Ci, Cii, Ciii on TATA scaffold) [BCY20072]
*A* t

*Q* Is Kd of ACSYYCFWPFQYCA (linker 2-6-13 via TATA) [BCY19767] strictly below 2000 nM?
*A* t

*Q* API: query returns whether the binder falls strictly under 2000 nM in Kd. Query: Ac-CSEYCFWPYYHC (linker 1-5-12 via TATA) [BCY20568]
*A* f

*Q* Just wondering, is Kd of K(Pent4ynoyl)CSEYCFWPFYHC (linker 2-6-13 via TATA) [BCY20042] below 2000 nM?
*A* t

*Q* # TODO verify Kd < 2000 nM strictly for this binder: Ac-CSEYCF[1Nal]PFYAC (linker 1-5-12 via TATA) [BCY19294]
*A* t

*Q* For this binder, is Kd lower than 2000 nM? Ac-CSEYCF[Phe(3-Me)]PFYHC (linker 1-5-12 via TATA) [BCY20064]
*A* f

*Q* Below 2000 nM on Kd? Entry ACSEYCFWAFYHCA (linker 2-6-13 via TATA) [BCY18225]
*A* f

*Q* Confirm or reject: Kd of CSXYCFWPFYHC (N-terminal acetyl (Ac); CiS[K(PYA)]YCiiFWPFYHCiii; Ci, Cii, Ciii on TATA scaffold) [BCY20096] lies strictly below 2000 nM
*A* f

*Q* Problem: For the binder ACTNYCFWPFQSCA (linker 2-6-13 via TATA) [BCY19780] , is Kd under 2000 nM?
*A* f
